# Measured Target: recombinant human G9a protein (Homo sapiens, UniProt Q96KQ7)
# Construct: purchased BPS Bioscience Inc. #51001
# Sequence (Q96KQ7 785-1210 limits assumed): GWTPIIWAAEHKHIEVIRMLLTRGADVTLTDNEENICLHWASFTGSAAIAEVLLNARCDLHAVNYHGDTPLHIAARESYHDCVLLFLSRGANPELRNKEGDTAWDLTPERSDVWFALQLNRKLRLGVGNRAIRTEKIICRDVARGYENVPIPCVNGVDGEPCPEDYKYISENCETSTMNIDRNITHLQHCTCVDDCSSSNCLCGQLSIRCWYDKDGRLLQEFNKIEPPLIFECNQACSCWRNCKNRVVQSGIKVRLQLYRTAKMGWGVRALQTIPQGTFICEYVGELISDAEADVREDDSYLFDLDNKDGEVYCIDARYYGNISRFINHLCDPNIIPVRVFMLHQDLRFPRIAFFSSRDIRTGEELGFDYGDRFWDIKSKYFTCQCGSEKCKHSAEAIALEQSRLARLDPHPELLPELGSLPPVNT
# Measurement Description: G9a inhibitory activity test (ALPHA)
# Type: biochemical
# Assay Context: biotinylated histone H3 peptide (1-21), SAM, read-out: Inhibitory activity (G9a IC50 value)
pIC50: −log10 of the molar value.
Consider the following compounds and their measured pIC50 readings.

Some solved cases for reference:
{"Compound": "CCCCC(NC(=O)c1[nH]c2c(c1C)C(=O)CC(C)(C)C2)C(=O)Nc1cccnc1C (stereo not shown)", "Observed Result": "≤ 6.70"}
{"Compound": "CCCCC(NC(=O)c1[nH]c2c(c1C)C(=O)CC(C)(C)C2)C(=O)Nc1cccc(-c2ccccn2)c1 (stereo not shown)", "Observed Result": "≤ 6.70"}
{"Compound": "CCCCC(NC(=O)c1[nH]c2c(c1C)C(=O)CC(C)(C)C2)C(=O)NCc1cccc(N2CCN(C)CC2)c1 (stereo not shown)", "Observed Result": "≤ 6.70"}

Enquiry: Lab note: need pIC50 for CCCCC(NC(=O)c1[nH]c2c(c1C)C(=O)CC(C)(C)C2)C(=O)NCc1ccccc1O (stereo not shown) on recombinant human G9a protein (Homo sapiens, UniProt Q96KQ7), anyone have it?
Return: ≤ 6.70

Enquiry: Lab note: need pIC50 for CCCCC(NC(=O)c1[nH]c2c(c1C)C(=O)CC(C)(C)C2)C(=O)Nc1ccc2cn[nH]c2c1 (stereo not shown) on recombinant human G9a protein (Homo sapiens, UniProt Q96KQ7), anyone have it?
Return: ≤ 6.70

Enquiry: Lab note: need pIC50 for CCCCC(NC(=O)c1[nH]c2c(c1C)C(=O)CC(C)(C)C2)C(=O)Nc1cccc2c1CCCC2 (stereo not shown) on recombinant human G9a protein (Homo sapiens, UniProt Q96KQ7), anyone have it?
Return: 6.70 to 7.30

---

# Measured Target: recombinant human G9a protein (Homo sapiens)
# Construct: purchased BPS Bioscience Inc. #51001
# Measurement Description: G9a inhibitory activity test (ALPHA)
# Assay type: biochemical
# Assay Context: read-out: Inhibitory activity (G9a IC50)
# Procedure: The G9a inhibitory activity of each compound was evaluated by measuring the enzymatic activity of G9a by amplified luminescence proximity homogeneous assay (ALPHA). […] Then, measurement was performed using the EnSpire Alpha plate reader (PerkinElmer, Inc., Waltham, Mass., USA). […]
Metric: IC50

Some solved cases for reference:
{"Molecule": "CCCCC(NC(=O)c1[nH]c2c(c1C)C(=O)CC(C)(C)C2)C(=O)NCc1ccc(CN(CC)CC)cc1 (stereo not shown)", "Measured Target": "recombinant human G9a protein (Homo sapiens)", "IC50": "< 50 nM"}
{"Molecule": "Cc1c(C(=O)NC(C(=O)Nc2ccc(OC3CCN(C)CC3)nc2)c2ccccc2Cl)[nH]c2c1C(=O)CC(C)(C)C2 (stereo not shown)", "Measured Target": "recombinant human G9a protein (Homo sapiens)", "IC50": "≥ 200 nM"}
{"Molecule": "CCCCC(NC(=O)c1[nH]c2c(c1C)C(=O)CC(C)(C)C2)C(=O)NCc1ccc(CN2CCC(F)CC2)cc1 (stereo not shown)", "Measured Target": "recombinant human G9a protein (Homo sapiens)", "IC50": "< 50 nM"}
{"Molecule": "CCCCC(NC(=O)Cc1ccc(Cl)cc1)C(=O)Nc1ccc(OC2CCN(C)CC2)nc1 (stereo not shown)", "Measured Target": "recombinant human G9a protein (Homo sapiens)", "IC50": "≥ 200 nM"}

Enquiry: Fill in the blank: the reported IC50 of Cc1c(C(=O)NC(CCC2CC2)C(=O)N2CCc3cc(N4CCOCC4)ccc32)[nH]c2c1C(=O)CC(C)(C)C2 (stereo not shown) is ____.
Return: ≥ 200 nM

Enquiry: Fill in the blank: the reported IC50 of O=C(NC(CCC1CC1)C(=O)Nc1ccc(C(F)(F)F)nc1)c1ccc(Nc2ccncc2)cc1 (stereo not shown) is ____.
Return: < 50 nM

Enquiry: Fill in the blank: the reported IC50 of CCCCC(NC(=O)c1ccc(Nc2ccccc2)cc1C)C(=O)Nc1ccc(OC2CCN(C)CC2)nc1 (stereo not shown) is ____.
Return: ≥ 200 nM

---

# Measured Target: recombinant human G9a protein (Homo sapiens, UniProt Q96KQ7)
# Construct: purchased BPS Bioscience Inc. #51001
# Measurement Description: G9a inhibitory activity test (ALPHA)
# Format: biochemical
# Assay Context: read-out: Inhibitory activity (G9a IC50)
Consider the following molecules and their measured IC50 readings.

Some solved cases for reference:
{"Molecule": "CCCCC(NC(=O)c1ccc(N2CCN(C)CC2)cc1C)C(=O)Nc1ccc(OC2CCN(C)CC2)nc1 (centres unmarked)", "Observed Result": "≥ 200 nM"}
{"Molecule": "COc1ccc(NC(=O)C(CCC2CC2)NC(=O)c2ccc(Nc3ccncc3)cn2)cn1 (centres unmarked)", "Observed Result": "≥ 200 nM"}
{"Molecule": "CCCCC(NC(=O)Cc1ccccc1)C(=O)Nc1ccc(OC2COC2)nc1 (centres unmarked)", "Observed Result": "50 to 200 nM"}
{"Molecule": "COc1ccc(NC(=O)C(CCC2CC2)NC(=O)c2ccc(C3CCN(C)CC3)cc2)cn1 (centres unmarked)", "Observed Result": "≥ 200 nM"}

Next molecule, please.
Enquiry: Fill in the blank: the reported IC50 of `Cc1c(C(=O)N[C@@H](CCC2CC2)C(=O)NC2CCN(C)CC2)[nH]c2c1C(=O)CC(C)(C)C2` is ____.
Return: 50 to 200 nM

---

Consider the following compounds and their measured IC50 readings.
# Measured Target: recombinant human G9a protein (Homo sapiens)
# Construct: purchased BPS Bioscience Inc. #51001
# Measurement Description: G9a inhibitory activity test (ALPHA)
# Type: biochemical
# Assay Context: read-out: Inhibitory activity (G9a IC50)

{"Compound": "CCCC[C@H](NC(=O)c1[nH]c2c(c1C)C(=O)CC(C)(C)C2)C(=O)NCc1ccc(N2CCN(CCCC)CC2)cc1", "IC50": "50 to 200 nM"}
{"Compound": "CCc1cc(C)ncc1NC(=O)C(CCC1CC1)NC(=O)c1[nH]c2c(c1C)C(=O)CC(C)(C)C2 (stereo not shown)", "IC50": "< 50 nM"}
{"Compound": "CCCCC(NC(=O)c1[nH]c2c(c1C)C(=O)CC(C)(C)C2)C(=O)Nc1cc(C)c2nc(N)sc2c1 (stereo not shown)", "IC50": "≥ 200 nM"}
{"Compound": "Cc1c(C(=O)N[C@@H](CCC2CC2)C(=O)N[C@@H](C)c2ccccc2)[nH]c2c1C(=O)CC(C)(C)C2", "IC50": "< 50 nM"}

Enquiry: Fill in the blank: the reported IC50 of `Cc1c(C(=O)N[C@@H](CCC2CC2)C(=O)N(C)[C@H](C)c2ccccc2)[nH]c2c1C(=O)CC(C)(C)C2` is ____.
Return: ≥ 200 nM

Enquiry: Fill in the blank: the reported IC50 of `CCCC[C@H](NC(=O)c1[nH]c2c(c1C)C(=O)CC(C)(C)C2)C(=O)N[C@@H](CC)c1ccccc1` is ____.
Return: < 50 nM

Enquiry: Fill in the blank: the reported IC50 of COc1ccc(NC(=O)C(CCC2CC2)NC(=O)c2cccc(CCCN(C)C)c2)cn1 (stereo not shown) is ____.
Return: ≥ 200 nM

---

Consider the following compounds and their measured IC50 readings.
# Measured Target: recombinant human G9a protein (Homo sapiens, UniProt Q96KQ7)
# Construct: purchased BPS Bioscience Inc. #51001
# Measurement Description: G9a inhibitory activity test (ALPHA)
# Type: biochemical
# Assay Context: read-out: Inhibitory activity (G9a IC50)

{"Compound": "CC(C)c1c(C(=O)NC(CCC2CC2)C(=O)N2CCc3c(OCCN(C)C)cccc32)[nH]c2c1C(=O)CC(C)(C)C2 (stereo not shown)", "IC50": "50 to 200 nM"}

Enquiry: Fill in the blank: the reported IC50 of `CCCC[C@H](NC(=O)c1[nH]c2c(c1C)C(=O)CC(C)(C)C2)c1nc2ccc(OCCN(C)C)cc2[nH]1` is ____.
Return: ≥ 200 nM

Enquiry: Fill in the blank: the reported IC50 of Cc1c(C(=O)NC(CCC2CCC2)C(=O)Nc2ccccc2)[nH]c2c1C(=O)CC(C)(C)C2 (stereo not shown) is ____.
Return: ≥ 200 nM

Enquiry: Fill in the blank: the reported IC50 of Cc1c(C(=O)NC(CCC2CC2)C(=O)N2CCc3ccc(CN4CCCCC4)cc32)[nH]c2c1C(=O)CC(C)(C)C2 (stereo not shown) is ____.
Return: ≥ 200 nM

---

# Measured Target: recombinant human G9a protein (Homo sapiens, UniProt Q96KQ7)
# Construct: purchased BPS Bioscience Inc. #51001
# Measurement Description: G9a inhibitory activity test (ALPHA)
# Assay type: biochemical
# Assay Context: read-out: Inhibitory activity (G9a IC50)
pIC50: −log10 of the molar value.
Consider the following compounds and their measured pIC50 readings.

Some solved cases for reference:
{"Compound": "Cc1c(C(=O)NC(CCC2CC2)c2nc3c(CN4CCN(C)CC4)cccc3n2C)[nH]c2c1C(=O)CC(C)(C)C2 (stereo not shown) [Example 31-6]", "pIC50": "≤ 6.70"}
{"Compound": "CCCCC(NC(=O)c1[nH]c2c(c1C)C(=O)CC(C)(C)C2)C(=O)Nc1ccc(OC2CNC2)nc1 (stereo not shown) [Example 26-1]", "pIC50": "6.70 to 7.30"}
{"Compound": "CCc1ccncc1NC(=O)C(CCC1CC1)NC(=O)c1[nH]c2c(c1C)C(=O)CC(C)(C)C2 (stereo not shown) [Example 6-2]", "pIC50": "> 7.30"}

Next compound, please.
Enquiry: Fill in the blank: the reported pIC50 of Cc1c(C(=O)NC(CCC2CC2)C(=O)N2CCc3c(CN4CCCC4)cccc32)[nH]c2c1C(=O)CC(C)(C)C2 (stereo not shown) [Example 1-126] is ____.
Return: > 7.30
